# measurement description: yeast display, Sf9 membrane polyspecificity reagent, FACS + sequencing; frameworks hold sequencing errors
value kind: polyreactivity (PSR sort gate)

seq | reported
QVQLVESGRGLVQAGVSLRISCAPSGRIFSGYAMGWYRQAPGKERELVAAITSSSGSTYYADSVKWRFTISRDNAKNTFYLQMISLKPEDTAVYYCAAEYVRLYWYTSDYWGQGTEVTVSS | low polyreactivity
QVQLVESGGGLVQAGGSLRLSCAASGSIFGANTMGWYRQAPGKERELVAAISSGGNTYYADSVKGRFTISRDNAKNTVYLQMNSLKPEDTAVYYCAVGAYWYFGFVSYGYDYCGQGTQVTVSS | low polyreactivity
QVQLVESGGGLVQAGGSLRLSCAASGSTFGVNAMGWYRQAPGKERELVAGISVDDSTTYYADSVKGRFTISRDNAKNTVYLQMNSLIPEDTAVYYCAAEREKTLYYLSRFDYWGQGTQVTVSS | low polyreactivity
